These entries and their values trace back to ChEMBL document CHEMBL3507680.

Task for the reader: assign each of the following compounds its reported cytotoxicity at 70.5 h.
Assay: Human HepG2 cell viability assay in 384 well format
Format: toxicity, cell-based
Parameters: dose 125 nL, time 70.5 hour; concentration not given beside the values
Conditions: HepG2 cells, read-out: Inhibition
Just the number in %, nothing appended.

IN: Name the reported cytotoxicity at 70.5 h value associated with the compound Cc1ccc(-c2nn(-c3cccc(F)c3)cc2CN(CCO)CCO)o1
OUT: -17.7

IN: Name the reported cytotoxicity at 70.5 h value associated with the compound Cc1nn(C)c(C)c1CC(=O)N1CCCC(n2cccn2)C1 (stereo not drawn)
OUT: -2.45

IN: Name the reported cytotoxicity at 70.5 h value associated with the compound COc1ccnc(NC(=O)CSCc2cccnc2)c1
OUT: -1.54

IN: Name the reported cytotoxicity at 70.5 h value associated with the compound COc1ccc(OC)c2c(C)cc(N(CCO)CCO)nc12
OUT: 19.5

IN: Name the reported cytotoxicity at 70.5 h value associated with the compound O=C(c1ccc(S(=O)(=O)NCCc2ccccn2)cc1)N1CCCC1
OUT: -14.8

IN: Name the reported cytotoxicity at 70.5 h value associated with the compound O=C([C@H]1C[C@H]2OCC[C@H]2N(Cc2ccccc2F)C1)N1CCCCO1
OUT: -7.79

IN: Name the reported cytotoxicity at 70.5 h value associated with the compound CCS(=O)(=O)c1ncc(CN2CCSCC2)n1CCc1ccccc1
OUT: -11.3

IN: Name the reported cytotoxicity at 70.5 h value associated with the compound Cc1nc(Nc2ccccn2)cc(C2CCCN2C2CCOCC2)n1 (stereo not drawn)
OUT: -10.7

IN: Name the reported cytotoxicity at 70.5 h value associated with the compound O=C1NC2(CCN(C(=O)c3ccc(Cl)cc3)CC2)CC1c1ccccc1 (stereo not drawn)
OUT: 20.8

IN: Name the reported cytotoxicity at 70.5 h value associated with the compound Cc1ccc(F)c2c1CCCN2C(=O)c1cn(CC(=O)N(C)C)nn1
OUT: -7.17

IN: Name the reported cytotoxicity at 70.5 h value associated with the compound CO[C@H]1CNC[C@@H]1NC(=O)c1cc(C)nc2ccc(C)cc12
OUT: 12.1

IN: Name the reported cytotoxicity at 70.5 h value associated with the compound COc1cc(S(=O)(=O)N2CCc3ccccc32)cc(C(=O)O)c1OC
OUT: -5.58

IN: Name the reported cytotoxicity at 70.5 h value associated with the compound Cc1ccc(S(=O)(=O)N2C[C@H]3C[C@H](NC(=O)c4cnn(C)c4)[C@H]3C2)cc1
OUT: 33.7

IN: Name the reported cytotoxicity at 70.5 h value associated with the compound NC(=O)C(NCCc1ccc(Cl)s1)c1ccccc1 (stereo not drawn)
OUT: -11.4

IN: Name the reported cytotoxicity at 70.5 h value associated with the compound O=S(=O)(Cc1ccccc1)NCc1ccnc(O)c1
OUT: 0.635

IN: Name the reported cytotoxicity at 70.5 h value associated with the compound CCCNC(=O)c1cc2c(nc1O)CCC(C)C2 (stereo not drawn)
OUT: 22.8

IN: Name the reported cytotoxicity at 70.5 h value associated with the compound CC(C)n1cc(CN2CCCN(C(=O)c3cccn3C)CC2)cn1
OUT: -2.47

IN: Name the reported cytotoxicity at 70.5 h value associated with the compound O=C1CN(C(=O)C2CCCCC2)CC(O)CN1Cc1ccco1 (stereo not drawn)
OUT: -4.93

IN: Name the reported cytotoxicity at 70.5 h value associated with the compound CN(Cc1cccnc1)C1CC2(CCN(C(=O)c3ccnnc3)CC2)C1
OUT: -13.1

IN: Name the reported cytotoxicity at 70.5 h value associated with the compound FC(F)(F)c1ccc(-c2noc3c2CN(CC2CCCO2)CC3)cc1 (stereo not drawn)
OUT: -10.2

IN: Name the reported cytotoxicity at 70.5 h value associated with the compound Cn1ccnc1CN1CCN2C[C@H](Oc3cccc(F)c3)C[C@H]2C1
OUT: 11.9

IN: Name the reported cytotoxicity at 70.5 h value associated with the compound CCCn1nnnc1CSc1nccn1CC
OUT: -0.835

IN: Name the reported cytotoxicity at 70.5 h value associated with the compound COc1ccc2cc(CN(C)CCc3cn[nH]c3)c(=O)[nH]c2c1
OUT: -6.43
